// provenance: patent US10669272B2

assay target: human DGKζ (Homo sapiens, UniProt Q13574)
Construct: TVMV protease cleavage site (C); Hexa-His (C); made in house; host or cells: Sf9 insect cells (baculovirus, Bac-to-Bac)
Sequence (Q13574 with tags, fused parts or gaps isoform Q13574-4): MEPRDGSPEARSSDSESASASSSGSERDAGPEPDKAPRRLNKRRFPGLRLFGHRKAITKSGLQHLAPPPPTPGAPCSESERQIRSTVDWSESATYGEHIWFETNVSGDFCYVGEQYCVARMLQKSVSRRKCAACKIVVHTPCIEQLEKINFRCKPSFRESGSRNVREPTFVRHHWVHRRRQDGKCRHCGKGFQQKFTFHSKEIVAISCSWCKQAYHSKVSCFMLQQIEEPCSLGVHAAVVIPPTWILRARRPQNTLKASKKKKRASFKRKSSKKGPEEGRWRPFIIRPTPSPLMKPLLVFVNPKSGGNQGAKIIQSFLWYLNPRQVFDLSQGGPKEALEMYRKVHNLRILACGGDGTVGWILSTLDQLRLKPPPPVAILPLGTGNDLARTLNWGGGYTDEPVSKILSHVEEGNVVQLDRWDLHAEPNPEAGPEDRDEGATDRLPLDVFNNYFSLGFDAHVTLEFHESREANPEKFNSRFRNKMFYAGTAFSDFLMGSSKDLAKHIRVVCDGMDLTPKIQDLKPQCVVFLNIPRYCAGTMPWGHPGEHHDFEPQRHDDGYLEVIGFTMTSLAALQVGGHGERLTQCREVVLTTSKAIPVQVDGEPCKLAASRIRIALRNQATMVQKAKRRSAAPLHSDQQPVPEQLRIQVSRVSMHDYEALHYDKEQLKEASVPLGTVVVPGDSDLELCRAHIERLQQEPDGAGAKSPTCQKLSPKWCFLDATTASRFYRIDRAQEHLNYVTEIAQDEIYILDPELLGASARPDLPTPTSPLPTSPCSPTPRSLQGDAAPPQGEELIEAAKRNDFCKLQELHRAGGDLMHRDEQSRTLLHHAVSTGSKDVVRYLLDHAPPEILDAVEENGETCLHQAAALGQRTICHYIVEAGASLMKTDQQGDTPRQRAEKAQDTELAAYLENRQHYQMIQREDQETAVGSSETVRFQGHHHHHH
test details: DGKζ LIPGLO assay (extruded liposome substrate), in vitro DGK inhibition
Type: biochemical
stated conditions: DGKζ liposome (LIPGLO) assay; read-out: DGKz LIPGLO IC50
pIC50: −log10 of the molar value.
Everything with pIC50 lower than 6 is 0 (no); everything else, including exactly 6, is 1 (yes).

Check if pIC50 >= 6 (inclusive). Item: C[C@@H]1CN(c2c(C#N)c(=O)n(C)c3ccc(C#N)nc23)[C@@H](C)CN1C(c1ccc(F)cc1)c1cscn1 (single isomer, unassigned) [Example 856]
0 (no)

Check if pIC50 >= 6 (inclusive). Item: C[C@@H]1CN(c2cc(=O)n(C)c3ccc(C#N)nc23)[C@@H](C)CN1C(c1ccc(F)cc1)c1nc(C2CN(C(=O)OC(C)(C)C)C2)no1 (single isomer, unassigned) [Example 756]
0 (no)

Check if pIC50 >= 6 (inclusive). Item: Cc1noc(C(c2ccc(F)cc2)N2C[C@H](C)N(c3cc(=O)n(C)c4ccc(C#N)nc34)C[C@H]2C)n1 (some centres unmarked) [Example 745]
1 (yes)

Check if pIC50 >= 6 (inclusive). Item: C[C@@H]1CN(c2cc(=O)n(C)c3ccc(C#N)nc23)[C@@H](C)CN1C(c1ccc(F)cc1)c1nc(C2CC2)no1 (single isomer, unassigned) [Example 736]
1 (yes)

Check if pIC50 >= 6 (inclusive). Item: C[C@@H]1CN(c2c(C#N)c(=O)n(C)c3ccc(C#N)nc23)[C@@H](C)CN1C(c1ccc(F)cc1)c1csc(C2CC2)n1 (single isomer, unassigned) [Example 859]
1 (yes)
